Exercise: for every item that follows, state its recorded melting point.

input: Recorded melting point of `CCOC(=NC(=O)c1ccncc1)N1Cc2ccccc2-c2ccccc2C1` , please.
output: 120 to 122 °C

input: Dear colleague, I am looking for the recorded melting point of the following molecule: CN1CCC(c2c(O)cc(O)c3c(=O)cc(-c4ccccc4O)oc23)C1CO (stereo not given)
output: 212 to 213 °C

input: Give the measured melting point of `CC(O)=C(C#N)C(=O)Nc1ccc([N+](=O)[O-])c(C)c1` .
output: 231 to 233 °C

input: Entry under review: `COC(=O)CCc1nc(I)ccc1O` . Reported melting point?
output: 145 to 148 °C

input: GET /values?readout=melting point&item= `Cc1cc(Br)cnc1CCCCc1cc(N)cc2c1C(N)=NS2(=O)=O`
output: 276 to 279 °C

input: GET /values?readout=melting point&item= `O=C1c2c(Br)cccc2-n2cnc(I)c2[C@@H]2CCCN12`
output: 301 to 303 °C

input: melting point lookup needed for `Cc1ncc([N+](=O)[O-])n1CCOS(C)(=O)=O` , thanks.
output: 152 to 153 °C

input: Which melting point is listed for `CC(=O)N1C(C)(C)CC(Oc2nc(Cl)nc(N3C(C)(C)CCCC3(C)C)n2)CC1(C)C` ?
output: 114 to 116 °C

input: // melting point lookup, key: `Cc1ccc(Nc2nnc(-c3ccc(N4CCOCC4)c([N+](=O)[O-])c3)s2)cc1Cl`
output: 268 to 269 °C

input: Bench note: what melting point did `O=C1CSC(=S)N1N=c1sc2ccc([N+](=O)[O-])cc2s1` show?
output: 315 °C

====

Answer each item with its documented melting point.

input: Would you kindly share the measured melting point for `CCc1nc2cc(S(C)(=O)=O)c(Cl)cc2n1-c1ccc(CCOC(=O)NS(=O)(=O)c2ccc(C)cc2)cc1` ?
output: 105 to 110 °C

input: Entry `COC(=O)Nc1cc(F)c(Br)cc1I` : reported melting point = ?
output: 101 to 102 °C

input: Query: melting point; subject: CCC(C)(C)c1cc(-c2cccc(CC3SC(N4CCOCC4)=NC3=O)n2)ccc1O (stereo unspecified)
output: 240 to 242 °C

input: Which melting point is listed for `CCCCOC(=O)c1ccc(N2CCN(C)CC2)cc1` ?
output: 118 to 120 °C

input: // returns reported melting point for input `CS(=O)(=O)c1ccc(-c2n[nH]c(=O)cc2-c2ccc(Cl)cc2)cc1`
output: 254 to 255 °C

input: // melting point lookup, key: `NS(=O)(=O)c1ccc(-c2ccco2)cc1`
output: 202 to 203 °C

input: Could you tell me which melting point is on file for `CN(C)c1cc2c3c(cccc3c1)C(=O)N(CCCCCC(=O)O)C2=O` ?
output: 111 to 114 °C

input: Query: melting point; subject: `CCOC(=O)c1sc(-c2ccc(C#N)cc2)nc1C`
output: 144 °C

input: Given the entry OCC1OC(OC2C(CO)OC(CO)C2O)C(O)C(O)C1O (stereo unspecified) , report its measured melting point.
output: 162 to 164 °C

input: Reported melting point, molecule CCOC(=O)C1=C(C)NC(CC)=C(C(=O)OCC)C1c1cc([N+](=O)[O-])ccc1OCCCCCl (stereo unspecified) : ____
output: 147 to 149 °C

input: Any idea what melting point was measured for Cc1ccc(O)c(C(C)(O)c2ccccc2)c1 (stereo unspecified) ?
output: 100 °C

====

What melting point was measured for each of the following?

input: GET /values?readout=melting point&item= `Cc1cc(NCCO)c2[nH]nc(-c3ccccc3)c2n1`
output: 135 °C

input: Requested read-out: melting point. Entry: `COC(CBr)(CCCC(=O)NN)OC`
output: 58 to 60 °C

input: Look up melting point for this compound: `O=c1oc2c(O)cccc2c(O)c1-c1ccccc1`
output: 220 °C

input: Please look up its melting point: `COC(=O)Cc1ccc(C(=O)c2ccc(C)cc2)n1C`
output: 117 to 118 °C

input: Which melting point value is on record for `Cc1cc(Oc2ccnc(OC(F)F)c2)nc(Oc2ccnc(OC(F)F)c2)c1` ?
output: 60 to 65 °C

input: Reported melting point for `Cc1noc(-c2ncn3c2[C@@H]2CCN2C(=O)c2c-3cccc2C(F)(F)F)n1` : what is it?
output: 255 to 256 °C

input: Param item = CCCOCc1ccc(C#CC2(O)CN3CCC2CC3)cc1 (stereo not given) ; retrieve measured melting point.
output: 140 to 141 °C

input: I have this compound here, `COc1ccc(CCNc2c(-c3ccc(S(C)(=O)=O)cc3)cnn(CC(F)(F)F)c2=O)cc1OC` , and I need its recorded melting point.
output: 163 to 165 °C

input: Data request, read-out melting point, for `CC(=O)NC[C@H]1CN(c2ccc(N3CCN(c4ccc(C=O)o4)CC3)c(F)c2)C(=O)O1`
output: 176 °C

input: Form field: reported melting point of `CCCCN(C)C(=O)CSCCCCCCOc1ccc(C2=C(c3ccccc3)CCCc3cc(O)ccc32)cc1`
output: 103 to 105 °C

====

value type: melting point

input: # input compound: `Nc1nc(Oc2ccccc2)c2nc[nH]c2n1` ; wanted: its melting point
output: 228 °C

input: For the compound `Cc1oc(-c2ccccc2)nc1COc1ccc(CCOS(C)(=O)=O)cc1` , what melting point is on record?
output: 66 to 67 °C

input: Which melting point is listed for `CC(C)C[C@@H](C#N)NC(=O)[C@@H]1CCCC[C@@H]1NC(=O)c1ccc(-n2cncn2)cc1` ?
output: 156 to 159 °C

input: Requested read-out: melting point. Entry: `CNS(=O)(=O)c1ccc(CCN2CC=C(c3c[nH]c(-c4ccc(F)cc4)c3-c3ccncc3)CC2)cc1OC`
output: 245 to 247 °C

input: I'd like to know its melting point. The compound in question is CC(Oc1ccc(Cl)c(Cl)c1)c1ccnc2ncnn12 (centres undefined)
output: 146 to 149 °C

input: Given `CNc1nc(Nc2ccc(Cl)c(Cl)c2)ncc1NC(=O)c1ccccc1` , state its recorded melting point.
output: 265 to 267 °C

input: Form field: reported melting point of CC12C=CC(=O)C=C1C(SC#N)C(O)C1C2CCC2(C)C(=O)CCC12 (centres undefined)
output: 206 to 208 °C

input: May I ask what melting point has been recorded for `CC(C)N1CCN(c2ccc(Nc3cc(-c4ccc5c(CCO)cn(C)c5c4)c(Cl)n4ccnc34)nc2)CC1` ?
output: 181 °C

input: If you can, please state the reported melting point value of O=C1COCC2=C1C(c1ccc(F)c(Br)c1)C1=C(CCS1(=O)=O)N2 (centres undefined) .
output: > 260 °C

====

Consider the following molecules; for each one, report its melting point.

input: Please report the recorded melting point for `O=S(=O)(O)c1cccc(Nc2ccnc3cc(Cl)ccc23)c1` .
output: > 300 °C

input: Requested read-out: melting point. Entry: `CONC(=NCCSCc1[nH]cnc1C)NC#N`
output: 155 to 156 °C

input: Return reported melting point; argument: COc1ccc(N2CCN(c3c(C)c(C)c4c(c3C)CC(C)(Cn3cccn3)O4)CC2)cc1 (stereo unspecified)
output: 117 to 120 °C

input: // melting point lookup, key: `Cc1nnc(C(=O)CCCCCCOc2ccc(O)cc2)o1`
output: 134 to 135 °C

input: Need melting point, item `CCC(=O)NCc1ccc(CN2CCN(c3ccccc3)CC2)cc1`
output: 140 to 141 °C

input: What measured melting point goes with `Clc1ncc(Br)c(NC2CCCC2)n1` ?
output: 95 to 96 °C

input: Can you look up the measured melting point of CCCNC(=S)c1ccc2c(c1)N(C(C)CN1CCCC1)c1ccccc1S2 (racemic) for me?
output: 150 to 152 °C

input: Need melting point of Cc1ccccc1N1C(=O)CN2C(=O)CCC21 (stereo unspecified) , thanks.
output: 138 to 139 °C

input: // lookup melting point for CCOC(=O)CCN1CCN2c3ccccc3Cc3ccccc3C2C1 (stereo unspecified)
output: 159 to 160 °C

input: Which melting point value belongs to `Clc1ccnc2[nH]c3ccc(Br)cc3c12` ?
output: > 220 °C

input: melting point for `COc1cc2c(cc1C#Cc1ccc(C(=O)O)cc1)C(C)(C)CCC2(C)C` ?
output: 231 to 234 °C

====

I'd be grateful if you could share measured melting point for these entries.

input: # lookup: melting point of `CCCO[C@@H](C)C(=O)Oc1ccc(C(=O)O)cc1`
output: 84 °C

input: Fill in the blank: the reported melting point of `Oc1ccc(N2CCN(c3nncc4ccccc34)CC2)cc1` is ____.
output: 244 to 245 °C

input: Given the molecule `O=c1c2c(N3CCNCC3)cc(Cl)cc2n(Cc2ccccc2)c(=O)n1Cc1ccccc1Br` , what is its reported melting point?
output: 94 to 97 °C

input: Please report the recorded melting point for CC(=O)NCC1CN(c2ccc(N3CCC(O)(C(C#N)C4CC4)CC3)c(F)c2)C(=O)O1 (centres undefined) .
output: 170 to 172 °C

input: Entry `CN1C(C)(C)CC(Nc2c([O-])[c+](NC3CC(C)(C)N(C)C(C)(C)C3)[c+]2[O-])CC1(C)C` has what melting point?
output: > 340 °C

input: # lookup: melting point of `O=C1C=CC(=O)c2ncccc21`
output: 110 °C

input: Given the molecule `Cc1nnc2ccc(-c3cccs3)nn12` , what is its reported melting point?
output: 152 to 153 °C

input: May I ask what melting point has been recorded for `O=C(O)[C@@H](CCN1C(=O)c2ccccc2C1=O)Oc1c(Br)cc(-c2c3ccccc3c(Br)c3sc4ccccc4c23)cc1Br` ?
output: 215 to 217 °C

input: Which melting point reading was recorded for the molecule COC1(OC)CCC2=C(CC(C)C3C2CCC2(C)CCCC32)C1 (centres undefined) ?
output: 57 °C

input: Form field: reported melting point of CC1(C)CCC2(C(=O)O)CCC3(C)C(=CCC4C5(C)CC(O)C(O)C(C)(CO)C5CCC43C)C2C1O (centres undefined)
output: 220 to 222 °C

input: Please report the recorded melting point for `c1csc(-c2ncc(COc3ccc(CCCn4ccnc4)cc3)s2)c1` .
output: 112 to 113 °C

input: Return reported melting point; argument: `CCc1noc(-c2ncn(-c3cccnc3)c2C)n1`
output: 127 to 128 °C

input: Fill in: melting point of `FC(F)(F)c1cc(Cl)c(-n2ncc(CS)n2)c(Cl)c1` is ___
output: 58 to 60 °C

input: Need melting point of O=C(Nc1ccccc1F)C1C(=O)Sc2ccccc21 (centres undefined) , thanks.
output: 155 to 156 °C

input: What value of melting point has been reported for the following molecule? CC(C)CCC(O)C(CC1CCCCC1)NC(=O)C(Cc1c[nH]cn1)N(C)C(=O)C(Cc1ccccc1)OC(=O)N(C)CCN(C)C(=O)N1CCOCC1 (centres undefined)
output: 69 to 74 °C

input: Can you share its melting point? I mean this molecule: `CC(=O)CCc1cccc(C)c1NC(=O)CC1c2ccccc2Oc2ccccc21`
output: 179 to 180 °C

input: Look up melting point: `CO[C@@H](Cc1ccc(OCCc2nc(-c3ccc(C(F)(F)F)cc3)oc2C)c2ccsc12)C(=O)O`
output: 173 to 175 °C

input: I would be grateful if you could share the reported melting point for `Cc1ccc(C(=O)C2(n3ccnc3)CC2)cc1` .
output: 88 to 90 °C

input: Which melting point is listed for `O=C(O)c1cccc2c1CCc1cc(F)ccc1S2` ?
output: 200 to 202 °C

input: Consider the molecule `Cn1c2cc(Cl)ccc2c2c(C=O)nn(-c3ccccc3)c(=O)c21` and give its measured melting point.
output: 235 to 236 °C

input: Find the recorded melting point belonging to `COc1nc(Br)cnc1NS(=O)(=O)c1cccc2c(NC(=O)OCc3ccccc3)cccc12` and report it.
output: 226 to 228 °C

input: Record request: melting point value, item COc1ccc(C2SCc3c(sc(N)c3C(=O)c3cccc4ccccc34)S2)cc1 (centres undefined)
output: 132 to 134 °C

input: Would you kindly share the measured melting point for `Cc1nc(N)c2nc(C)n(CCOCCCc3cccnc3)c2c1C` ?
output: 109 to 110 °C

input: Query: melting point; subject: `Cc1nc(-c2ccc(C(F)(F)F)cc2)sc1COc1ccc(/C=C/C(=O)O)cc1`
output: 226 to 228 °C

input: Which melting point is listed for `O=C(Nc1cccc2c(-n3c(-c4cccnc4)nc4ccccc43)ccnc12)c1c(Cl)cccc1Cl` ?
output: 203 to 204 °C

input: For `CC#Cc1c(-c2ccc(S(C)(=O)=O)cc2)cnn(-c2ccc(F)c(F)c2)c1=O` , what is its reported melting point?
output: 149 to 150 °C

input: Given the entry `CC(C)(C)c1ccc(S(=O)(=O)Oc2ccc(C(c3ccc(OS(=O)(=O)c4ccc(C(C)(C)C)cc4)cc3)(C(F)(F)F)C(F)(F)F)cc2)cc1` , report its measured melting point.
output: 177 to 180 °C

input: Returns the measured melting point for the input molecule. Input: `CNC(=O)c1cn(CCO)nc1[N+](=O)[O-]`
output: 138 to 140 °C

input: Fill blank: measured melting point of the molecule N#CC(CC1CCCCC1)c1n[nH]c2cc(O)ccc12 (centres undefined) is ____.
output: 175 °C

input: # query: melting point of entry `O=C(CCl)c1ncccn1`
output: 73 to 80 °C

input: # get_value(readout='melting point', item= `CCN(C(=O)c1ccc2nonc2c1)C1CCCCC1` )
output: 51 to 52 °C

input: melting point for CNC(=O)COc1cccc2c1S(=O)(=O)N=C2C1=C(O)C(C(C)(C)C)N(Cc2ccc(F)cc2)C1=O (centres undefined) ?
output: > 225 °C

input: Look at this molecule and give its reported melting point. CC1=C(C)C(=O)C(CN2C(=O)[C@H]3CCC[C@H]3N(C(=O)CN3C(=O)c4ccccc4C3=O)c3ccccc32)=C(C)C1=O (relative stereo)
output: 258 to 260 °C

input: So what's the measured melting point for this one? `C=CS(=O)(=O)c1ccc(/C(=C\C2CCCCC2)C(=O)OC)cc1Cl`
output: 105 to 108 °C

input: Item under review: `CC(C)(C)OC(=O)N[C@@H](Cc1ccccc1)C(=O)CCl` . Reported melting point?
output: 101 to 102 °C

input: Consider the molecule shown here: `CCOC(=O)c1cc(OC)c2c(c1)C(=O)c1c(F)ccc(OC)c1C2=O` What is its recorded melting point?
output: 201 to 203 °C

input: Form field: reported melting point of `Cc1c(C#N)c(SC(F)(F)F)cn1-c1c(Cl)cc(C(F)(F)F)cc1Cl`
output: 98.5 °C

input: What does the data say about its melting point? Entry: `COc1cc(OC)nc(Oc2ccc3[nH]c(C)c(NC(C)=O)c3c2C(=O)O)n1`
output: 230 to 233 °C

input: Which measured melting point value corresponds to `COc1cc(CCl)ccc1C12CC3CC(CC(C3)C1)C2` ?
output: 77 to 78 °C
